test system: stimulated human neutrophils; experiment: functional human neutrophil assay, HOCl production by PMA-stimulated neutrophils; type: cell-based; conditions: 2x10^6 neutrophils, PMA 1 μg/ml, 15 min preincubation, 30 min at 37C, read-out: Inhibition of HOCl production by stimulated human neutrophils, pIC50 (converted)
RECORDED_METRIC: IC50 (µM)
Give the number; µM is assumed, so skip it.

Some molecules with recorded IC50:
MOLECULE	IC50 (µM)
Nc1ccc(S(=O)(=O)Nc2ccccn2)cc1	31.6
COc1cc(NC(C)CCCN)c2ncccc2c1 (stereo not shown)	12.6
Nc1ccc(S(=O)(=O)c2ccc(N)cc2)cc1	20

Now consider a different molecule.
Looking up Nc1ccc(S(N)(=O)=O)cc1 [Sulfanilamide] , I see its IC50 listed as 15.8

* * *

biological target: human MPO (Homo sapiens); construct: purchased Planta; assay: in vitro MPO assay measuring production of hypochlorus acid (HOCl); format: biochemical
Sequence (P05164 279-745 limits assumed): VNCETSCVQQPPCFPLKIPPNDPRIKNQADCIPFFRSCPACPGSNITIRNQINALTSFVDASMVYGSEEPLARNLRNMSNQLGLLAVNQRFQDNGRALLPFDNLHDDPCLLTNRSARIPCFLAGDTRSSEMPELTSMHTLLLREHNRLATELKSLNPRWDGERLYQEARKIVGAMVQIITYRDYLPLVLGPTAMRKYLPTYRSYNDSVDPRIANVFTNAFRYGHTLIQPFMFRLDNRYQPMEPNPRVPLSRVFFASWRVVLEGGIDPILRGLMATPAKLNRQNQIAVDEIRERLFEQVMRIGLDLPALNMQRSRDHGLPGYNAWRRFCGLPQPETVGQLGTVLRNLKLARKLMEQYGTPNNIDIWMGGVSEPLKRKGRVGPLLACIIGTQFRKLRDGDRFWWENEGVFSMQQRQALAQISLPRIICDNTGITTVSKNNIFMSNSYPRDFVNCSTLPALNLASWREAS
Sequence (P05164 165-273 limits assumed): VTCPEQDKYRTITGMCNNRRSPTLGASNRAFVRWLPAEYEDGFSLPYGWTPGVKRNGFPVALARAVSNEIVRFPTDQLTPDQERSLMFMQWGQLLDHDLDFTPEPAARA
Reported pIC50 values for the following compounds.
The value called pIC50 is obtained by taking minus log10 of the concentration in mol/L.

COMPOUND	pIC50
c1ccc2[nH]ccc2c1 [Indole]	5.70

Now consider a different compound.
Looking up COc1ccc2[nH]cc(CCN)c2c1 [5-Methoxytryptamine] , I see its pIC50 listed as 6.20
